# systemUnderTest: UniProt Q9HBX9
# protocol: hRXFP1 HEK293 cAMP assay (HTRF)
# protocolConditions: HEK293 cells stably expressing human RXFP1, 30 min at room temperature
pEC50: −log10 of the molar value.
The following molecules are shown together with reported pEC50 values.

molecule: COc1ccc(/C=C/C(=O)N2CCC(S(C)(=O)=O)CC2)cc1C(=O)N[C@H]1[C@@H](C(=O)Nc2ccc(F)c(C(F)(F)F)c2)[C@H]2CC[C@@H]1/C2=C\C1CC1 [Example 317]
pEC50: 6.85
--
molecule: C#Cc1ccc(OC)c(C(=O)N[C@@H]2C3CCC(/C3=C/C(F)(F)F)[C@@H]2C(=O)Nc2ccc(F)c(C(F)(F)F)c2)c1 (some centres unmarked) [Example 75]
pEC50: 7.04
--
molecule: COc1ccc(COCC2COC2)cc1C(=O)N[C@H]1[C@@H](C(=O)Nc2ccc(F)c(C(F)(F)F)c2)[C@H]2CC[C@@H]1/C2=C\C(F)(F)F [Example 284]
pEC50: 6.79
--
molecule: COc1ccc(COCC2CC2(F)F)cc1C(=O)N[C@@H]1C2CCC(/C2=C/C2CC2)[C@@H]1C(=O)Nc1ccc(F)c(C(F)(F)F)c1 (some centres unmarked) [Example 15]
pEC50: 7.44
--
molecule: COc1ccc(CC(C)CO)cc1C(=O)N[C@@H]1C2CCC(/C2=C/C(F)(F)F)[C@@H]1C(=O)Nc1ccc(F)c(C(F)(F)F)c1 (single isomer, unassigned) [Example 67]
pEC50: 6.71
--
molecule: COc1cc(F)c(O[C@H]2CC[C@H](C(=O)O)CC2)cc1C(=O)N[C@@H]1C2CCC(/C2=C/C2CC2)[C@@H]1C(=O)Nc1ccc(F)c(C(F)(F)F)c1 (some centres unmarked) [Example 376]
pEC50: 6.92
--
molecule: COc1ccc(C(=O)N2CC[C@@H](CO)C2)cc1C(=O)N[C@H]1[C@@H](C(=O)Nc2ccc(F)c(C(F)(F)F)c2)[C@H]2CC[C@@H]1/C2=C\C1CC1 [Example 245]
pEC50: 7.42
--
molecule: COc1ccc(CCCNCC(O)(C(F)(F)F)C(F)(F)F)cc1C(=O)N[C@H]1[C@@H](C(=O)Nc2ccc(F)c(C(F)(F)F)c2)[C@H]2CC[C@@H]1/C2=C\C(F)(F)F [Example 117]
pEC50: 5.91
--
molecule: COc1ccc(CCC(C)(C)O)cc1C(=O)NC1C2CCC(/C2=C/C2CCOCC2)[C@@H]1C(=O)Nc1ccc(F)c(C(F)(F)F)c1 (some centres unmarked) [Example 166]
pEC50: 6.89
--
molecule: COc1ccc(C(=O)NC(C)(C)C)cc1C(=O)N[C@H]1[C@@H](C(=O)Nc2ccc(F)c(C(F)(F)F)c2)[C@H]2CC[C@@H]1/C2=C\C1CC1 [Example 236]
pEC50: 6.63
--
molecule: COc1ccc(CCCCCCO)cc1C(=O)N[C@@H]1C2CCC(/C2=C/C(F)(F)F)[C@@H]1C(=O)Nc1ccc(F)c(C(F)(F)F)c1 (some centres unmarked) [Example 99]
pEC50: 6.57

====

The following compounds are shown together with reported EC50 values.
# systemUnderTest: human RXFP1 (Homo sapiens)
# protocol: hRXFP1 HEK293 cAMP assay (HTRF)
# protocolConditions: HEK293 cells stably expressing human RXFP1, 30 min at room temperature

compound: COc1ccc(C[C@H]2C[C@H](O)C2)cc1C(=O)N[C@H]1[C@@H](C(=O)Nc2ccc(F)c(C(F)(F)F)c2)[C@H]2CC[C@@H]1/C2=C\C(F)(F)F [Example 278]
EC50 (nM): 32

compound: COc1ccc(/C=C/C(=O)N2CCC(C(F)(F)F)CC2)cc1C(=O)N[C@H]1[C@@H](C(=O)Nc2ccc(F)c(C(F)(F)F)c2)[C@H]2CC[C@@H]1/C2=C\C1CC1
EC50 (nM): 91.2

compound: COc1ccc(C2CC3CC(O)CC32)cc1C(=O)N[C@H]1[C@@H](C(=O)Nc2ccc(F)c(C(F)(F)F)c2)[C@H]2CC[C@@H]1/C2=C\C1CC1 (single isomer, unassigned) [Example 340]
EC50 (nM): 78.5

compound: COc1ccc(COC2=NOC3CC(O)CC23)cc1C(=O)N[C@H]1[C@@H](C(=O)Nc2ccc(F)c(C(F)(F)F)c2)[C@H]2CC[C@@H]1/C2=C\C1CC1 (some centres unmarked)
EC50 (nM): 21.6

compound: O=C(N[C@@H]1C2CCC(/C2=C/C(F)(F)F)[C@@H]1C(=O)Nc1ccc(F)c(C(F)(F)F)c1)c1cc(CCCO)ccc1OCCO (some centres unmarked)
EC50 (nM): 815

====

# systemUnderTest: UniProt Q9HBX9
# protocol: hRXFP1 HEK293 cAMP assay (HTRF)
# protocolConditions: HEK293 cells stably expressing human RXFP1, 30 min at room temperature
pEC50: −log10 of the molar value.
The following compounds are shown together with reported pEC50 values.

compound: COc1ccc(CCC(F)(F)F)cc1C(=O)NC1C2CCC(/C2=C/C(F)(F)F)[C@@H]1C(=O)Nc1ccc(F)c(C(F)(F)F)c1 (stereo partly drawn)
pEC50: 6.41
--
compound: COC(=O)C1CC(c2ccc(OC)c(C(=O)N[C@H]3[C@@H](C(=O)Nc4ccc(F)c(C(F)(F)F)c4)[C@H]4CC[C@@H]3/C4=C\C(F)(F)F)c2)C1 (stereo partly drawn) [Example 329]
pEC50: 6.68
--
compound: COc1ccc(CCO)cc1C(=O)NC1C2CCC(/C2=C/C(F)(F)F)[C@@H]1C(=O)Nc1ccc(F)c(C(F)(F)F)c1 (stereo partly drawn)
pEC50: 6.11

====

# systemUnderTest: human RXFP1 (Homo sapiens)
# Sequence (Q9HBX9 1-757): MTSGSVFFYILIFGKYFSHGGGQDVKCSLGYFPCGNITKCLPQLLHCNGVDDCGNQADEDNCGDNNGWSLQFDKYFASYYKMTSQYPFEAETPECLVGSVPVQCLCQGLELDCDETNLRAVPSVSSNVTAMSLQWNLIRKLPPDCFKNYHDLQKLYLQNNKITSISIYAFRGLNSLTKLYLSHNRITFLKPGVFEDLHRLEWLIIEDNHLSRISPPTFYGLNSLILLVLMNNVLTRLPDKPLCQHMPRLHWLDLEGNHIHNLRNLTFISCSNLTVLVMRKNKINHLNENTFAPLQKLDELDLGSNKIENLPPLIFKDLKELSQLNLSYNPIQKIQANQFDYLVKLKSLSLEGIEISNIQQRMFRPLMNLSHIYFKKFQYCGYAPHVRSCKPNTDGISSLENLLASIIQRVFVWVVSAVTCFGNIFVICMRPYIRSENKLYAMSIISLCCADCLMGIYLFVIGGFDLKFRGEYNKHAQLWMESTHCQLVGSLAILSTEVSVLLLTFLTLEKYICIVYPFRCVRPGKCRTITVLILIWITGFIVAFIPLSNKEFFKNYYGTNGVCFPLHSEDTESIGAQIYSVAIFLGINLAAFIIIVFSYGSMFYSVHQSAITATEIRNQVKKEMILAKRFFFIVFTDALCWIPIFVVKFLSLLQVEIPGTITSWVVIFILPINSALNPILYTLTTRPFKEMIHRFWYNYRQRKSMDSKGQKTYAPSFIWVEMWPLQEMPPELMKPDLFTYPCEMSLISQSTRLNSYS
# protocol: hRXFP1 HEK293 cAMP assay (HTRF)
# protocolConditions: HEK293 cells stably expressing human RXFP1, 30 min at room temperature
The following compounds are shown together with reported EC50 values.
assayEndpoint: EC50

compound: COc1ccc(CCCN2CCOCC2)cc1C(=O)N[C@@H]1C2CCC(/C2=C/C(F)(F)F)[C@@H]1C(=O)Nc1ccc(F)c(C(F)(F)F)c1 (stereo partly shown) [Example 121]
systemUnderTest: human RXFP1 (Homo sapiens)
valueReported: 1070 nM
--
compound: COc1ccc(S(=O)(=O)N2CCN3C(=O)CCC3C2)cc1C(=O)N[C@H]1[C@@H](C(=O)Nc2ccc(F)c(C(F)(F)F)c2)[C@H]2CC[C@@H]1/C2=C\C(F)(F)F (stereo partly shown) [Example 210]
systemUnderTest: human RXFP1 (Homo sapiens)
valueReported: 237 nM
--
compound: COc1ccc(CN2C(=O)CN(CCO)C2=O)cc1C(=O)N[C@H]1[C@@H](C(=O)Nc2ccc(F)c(C(F)(F)F)c2)[C@H]2CC[C@@H]1/C2=C\C1CC1 [Example 294]
systemUnderTest: human RXFP1 (Homo sapiens)
valueReported: 117 nM
--
compound: COc1ccc(S(=O)(=O)NC[C@H](C)O)cc1C(=O)N[C@@H]1C2CCC(/C2=C/C(F)(F)F)[C@@H]1C(=O)Nc1ccc(F)c(C(F)(F)F)c1 (stereo partly shown) [Example 197]
systemUnderTest: human RXFP1 (Homo sapiens)
valueReported: 918 nM

====

# systemUnderTest: UniProt:Q9HBX9
# protocol: hRXFP1 HEK293 cAMP assay (HTRF)
# protocolConditions: HEK293 cells stably expressing human RXFP1, 30 min at room temperature
The following compounds are shown together with reported EC50 values.

compound: COC(=O)OCC/C=C/c1ccc(OC)c(C(=O)N[C@H]2[C@@H](C(=O)Nc3ccc(F)c(C(F)(F)F)c3)[C@H]3CC[C@@H]2C3=C(C)C)c1
EC50 (nM): 580

compound: COc1ccc(CCCNC(=O)[C@H](C)O)cc1C(=O)N[C@@H]1C2CCC(/C2=C/C(F)(F)F)[C@@H]1C(=O)Nc1ccc(F)c(C(F)(F)F)c1 (stereo partly drawn)
EC50 (nM): 457

compound: COc1ccc([C@H]2C[C@@H](O)C2)cc1C(=O)NC1C2CCC(/C2=C/C(F)(F)F)[C@@H]1C(=O)Nc1ccc(F)c(C(F)(F)F)c1 (stereo partly drawn)
EC50 (nM): 234

compound: COc1ccc(CCC(O)C(F)(F)F)cc1C(=O)N[C@@H]1C2CCC(/C2=C/C(F)(F)F)[C@@H]1C(=O)Nc1ccc(F)c(C(F)(F)F)c1 (stereo partly drawn)
EC50 (nM): 372

compound: COc1ccc(C2CCCC(O)C2)cc1C(=O)N[C@@H]1C2CCC(/C2=C/C(F)(F)F)[C@@H]1C(=O)Nc1ccc(F)c(C(F)(F)F)c1 (single isomer, unassigned) [Example 37]
EC50 (nM): 780

compound: COc1ccc(COC2CCC(OCc3ccccc3)CC2)cc1C(=O)N[C@@H]1C2CCC(/C2=C/C2CC2)[C@@H]1C(=O)Nc1ccc(F)c(C(F)(F)F)c1 (single isomer, unassigned) [Example 24]
EC50 (nM): 1810
